Experiment: Binding activity against 5-hydroxytryptamine 3 receptor from rat cortex homogenate using [3H]-Q-ICS 205-930 as radioligand.
Below, each entry is listed alongside its reported IC50.
The reply should be a number in nM, with the unit left off.

CN(C)CCc1c[nH]c2ccc(Cc3ncnn3C)cc12	100

Now turn to the next compound.
Task: Quick check: IC50 of CN(C)CCc1c[nH]c2ccc(Cn3ccnc3)cc12 ?
Output: 31.6

###

Experiment: Binding activity against 5-hydroxytryptamine 2C receptor from pig cortex membrane using [3H]mesulergine as radioligand.
experimental readout: IC50 (µM)
The reply should be a number in µM, with the unit left off.

CN(C)CCc1c[nH]c2ccc(Cn3ncnn3)cc12	1
CN(C)CCc1c[nH]c2ccc(Cn3ccnc3)cc12	3.98
Cc1nccn1Cc1ccc2[nH]cc(CCN(C)C)c2c1	3.16

Now turn to the next molecule.
Task: Quick check: IC50 of CN(C)CCc1c[nH]c2ccc(Cn3cnnn3)cc12 ?
Output: 2

###

Experiment: Binding activity against 5-hydroxytryptamine 3 receptor from rat cortex homogenate using [3H]-Q-ICS 205-930 as radioligand.
experimental readout: IC50 (nM)
The reply should be a number in nM, with the unit left off.

Some compounds with known IC50 results, for comparison:
CN(C)CCc1c[nH]c2ccc(Cc3nnn[nH]3)cc12	3980
CN(C)CCc1c[nH]c2ccc(Cc3nnn(C)n3)cc12	79.4
Cc1nccn1-c1ccc2[nH]cc(CCN(C)C)c2c1	7.94
CN(C)CCc1c[nH]c2ccc(Cn3ncnn3)cc12	39.8
Cc1nccn1Cc1ccc2[nH]cc(CCN(C)C)c2c1	63.1
CCn1nnc(Cc2ccc3[nH]cc(CCN(C)C)c3c2)n1	126

Now turn to the next compound.
Task: Quick check: IC50 of CCn1nnnc1Cc1ccc2[nH]cc(CCN(C)C)c2c1 ?
Output: 25.1

###

Test: Binding activity against 5-hydroxytryptamine 2C receptor from pig cortex membrane using [3H]mesulergine as radioligand.
Below, each entry is listed alongside its reported IC50.

Some molecules with known IC50 results, for comparison:
CN(C)CCc1c[nH]c2ccc(Cc3nnn[nH]3)cc12	> 10 µM
CCn1nnnc1Cc1ccc2[nH]cc(CCN(C)C)c2c1	> 10 µM

Now turn to the next molecule.
Task: Quick check: IC50 of CN(C)CCc1c[nH]c2ccc(Cc3ncnn3C)cc12 ?
Output: > 10 µM

###

Below, each entry is listed alongside its reported IC50.
Assay: Binding activity against 5-hydroxytryptamine 3 receptor from rat cortex homogenate using [3H]-Q-ICS 205-930 as radioligand.
The reply should be a number in nM, with the unit left off.

Some molecules with known IC50 results, for comparison:
CN(C)CCc1c[nH]c2ccc(Cc3nncn3C)cc12	25.1
CN(C)CCc1c[nH]c2ccc(Cc3nnnn3C)cc12	25.1

Task: Quick check: IC50 of CN(C)CCc1c[nH]c2ccc(Cn3cnnn3)cc12 ?
Output: 39.8
